# System: HCT-15
# test-summary: NCI tumour cell line growth inhibition, 48 h
observation-type: GI50

Here's what some known entries look like.
molecule	GI50
CCOC(=O)c1c2ccc(/C=C/c3ccccc3)ccc-2c(C(=O)OCC)c1N	> 100 µM
O=c1c(-c2ccccc2)c(SCCCN2CCCCC2)n(-c2ccccc2)c(=S)n1-c1ccccc1	17.3 µM
COC(=O)c1sc(=S)sc1SCc1ccc(CSc2sc(=S)sc2C(=O)OC)cc1	> 100 µM
O=c1c2c3c(sc2nc(CN2CCNCC2)n1-c1ccccc1)CCCC3	> 100 µM
c1ccc2c(c1)nc1n2sc2nc3ccccc3n21	> 100 µM

Go through the items and report each one's GI50.
1. C[C@H]1[C@H]2[C@H](C[C@@]3(C)C4=CC[C@H]5C(C)(C)[C@@H](OC6OCC(O)C(O)C6O)CC[C@@]56C[C@@]46CC[C@]23C)O[C@@]2(O)[C@@H]1OC(C)(C)[C@H]2O (stereo partly specified)
2. COC12C(COC(=O)NCCO)C3=C(C(=O)C(C)=C(N)C3=O)N1CC1NC12 (stereo unspecified)

1. 1.05 µM
2. 170 µM

Go through the items and report each one's GI50.
1. O=C(O)CSc1nnc(-c2ccccc2O)[nH]1
2. C[N+]1(C)CC[N+](C)(C)[BH-]1C(O)O
3. O=c1c2ccccc2nc(-c2ccccc2)n1O

1. > 100 µM
2. > 100 µM
3. 41.1 µM

Name the recorded GI50 for O=C(O/N=C1/CCCC/C1=C\c1ccccc1)c1ccccc1 .
84.3 µM
